- tested.target: AgAbp1
- protocol.details: SPOT peptide array binding signal intensity (averaged, normalized) (arbitrary units (background-subtracted, floor 0; scale differs between SH3 domains)); higher = stronger binding of the SH3 domain to the peptide
observed.property: SPOT peptide array binding signal intensity

Would you kindly share the measured SPOT peptide array binding signal intensity for NENKKLPPAPTVFGL ?
≤ 0

Would you kindly share the measured SPOT peptide array binding signal intensity for GDHPKGPPPPPPPDE ?
≤ 0

Would you kindly share the measured SPOT peptide array binding signal intensity for VQPTAAPATPPRHIS ?
≤ 0
